test system: HGC-27; assay: Antiproliferative activity against human HGC-27 cells assessed as reduction in cell viability after 24 hrs by MTT assay; type: functional, cell-based; details: HGC-27, 24 h
measurementLabel: pIC50
Just so you know, pIC50 here is -log10 of the concentration in molar units; reply with that number alone.

Past entries and their recorded results:
The value of pIC50 measured for the compound c1cc2c(c3c1CC1c4cc5c(cc4CCN1C3)OCO5)OCO2 (stereo unspecified) turned out to be 4.26

The value of pIC50 measured for the compound `COc1cc2c(cc1C(=O)c1nccc3cc4c(cc13)OCO4)OCO2` turned out to be 5.03

The value of pIC50 measured for the compound `O=c1c2c3c(ccc2cc2n1CCc1cc4c(cc1-2)OCO4)OCO3` turned out to be 4.26

The value of pIC50 measured for the compound `CN1CCc2cc3c(cc2[C@H]1[C@H]1OC(=O)c2c1ccc1c2OCO1)OCO3` turned out to be 4.00

The value of pIC50 measured for the compound `CN1CCc2cc3c(cc2C(=O)Cc2ccc4c(c2C1)OCO4)OCO3` turned out to be 3.92

Moving on to the next compound.
The value of pIC50 measured for the compound `COc1cc2c(cc1Cc1nccc3cc4c(cc13)OCO4)OCO2` turned out to be 3.91

Source of measurements: ChEMBL document CHEMBL5143625
